Recorded Measured fresh weight inhibition rate (%), one value per entry.
Tested on: Bromus japonicus
procedureDetails: Pot experiment, soil treatment, control of Bromus japonicus (fresh weight, Colby)
Type: in vivo
measurementSetup: g ai/ha: pyroxasulfone 11.25; fluorochloridone 31.25; aclonifen 150; diflufenican 14.0625; terbutryn 140.625; mixtures: both AIs at these rates; after 35 days
Reply with just the number (in %).

Below, each entry is followed by its recorded Measured fresh weight inhibition rate (%) result.
# smilesEntry, unitAbbreviation, observedValue
measured = [
    ("Nc1c([N+](=O)[O-])ccc(Oc2ccccc2)c1Cl", "%", 45.4),
    ("O=C(Nc1ccc(F)cc1F)c1cccnc1Oc1cccc(C(F)(F)F)c1", "%", 59.8),
    ("Cn1nc(C(F)(F)F)c(CS(=O)(=O)C2=NOC(C)(C)C2)c1OC(F)F", "%", 74.2),
]

// `CCNc1nc(NC(C)(C)C)nc(SC)n1` : Measured fresh weight inhibition rate (%) value = 100.0

---

Test system: Lolium multiflorum Lamk
procedureDetails: Pot experiment, soil treatment, control of Lolium multiflorum Lamk (fresh weight, Colby)
Type: in vivo
measurementSetup: g ai/ha: pyroxasulfone 22.5; fluorochloridone 62.5; aclonifen 300; diflufenican 28.125; terbutryn 281.25; mixtures: both AIs at these rates; after 35 days
observationType: Measured fresh weight inhibition rate (%)
# output: bare number, implied unit %

# smilesEntry, observedValue
records = [
    ("Nc1c([N+](=O)[O-])ccc(Oc2ccccc2)c1Cl", 96.4),
]

// sample `CCNc1nc(NC(C)(C)C)nc(SC)n1` , its Measured fresh weight inhibition rate (%) was 94.8

The compound listed as `Cn1nc(C(F)(F)F)c(CS(=O)(=O)C2=NOC(C)(C)C2)c1OC(F)F` shows Measured fresh weight inhibition rate (%) equal to 94.8

Query `O=C(Nc1ccc(F)cc1F)c1cccnc1Oc1cccc(C(F)(F)F)c1` yields Measured fresh weight inhibition rate (%) of 88.0

---

System: Bromus japonicus
procedureDetails: Pot experiment, soil treatment, control of Bromus japonicus (fresh weight, Colby)
Format: in vivo
measurementSetup: g ai/ha: pyroxasulfone 90; fluorochloridone 250; aclonifen 1200; diflufenican 112.5; terbutryn 1125; mixtures: both AIs at these rates; after 35 days
observationType: Measured fresh weight survival rate (%) - E
Your answer is read as %, so omit the unit and give the number.

# smilesEntry, observedValue
records = [
    ("Nc1c([N+](=O)[O-])ccc(Oc2ccccc2)c1Cl", 0.0),
    ("O=C(Nc1ccc(F)cc1F)c1cccnc1Oc1cccc(C(F)(F)F)c1", 4.1),
]

Value of measured Measured fresh weight survival rate (%) - E for the entry `Cn1nc(C(F)(F)F)c(CS(=O)(=O)C2=NOC(C)(C)C2)c1OC(F)F` : 0.0

# Measured fresh weight survival rate (%) - E (compound: `CCNc1nc(NC(C)(C)C)nc(SC)n1` ) is 0.0

---

Test system: Aegilops tauschii
procedureDetails: Pot experiment, soil treatment, control of Aegilops tauschii (fresh weight, Colby)
Assay type: in vivo
measurementSetup: g ai/ha: pyroxasulfone 11.25; fluorochloridone 31.25; aclonifen 150; diflufenican 14.0625; terbutryn 140.625; mixtures: both AIs at these rates; after 35 days
observationType: Measured fresh weight inhibition rate (%)
Value expressed in %; do not type the unit.

# smilesEntry, unitAbbreviation, observedValue
records = [
    ("O=C(Nc1ccc(F)cc1F)c1cccnc1Oc1cccc(C(F)(F)F)c1", "%", 3.7),
]

The recorded Measured fresh weight inhibition rate (%) for entry `Nc1c([N+](=O)[O-])ccc(Oc2ccccc2)c1Cl` equals 6.1

The compound listed as `CCNc1nc(NC(C)(C)C)nc(SC)n1` shows Measured fresh weight inhibition rate (%) equal to 8.5

The measured values listed here are drawn from patent US20260013504A1.
